Taken from ChEMBL document CHEMBL1201862.

Tested on: HCT-15
readout.name: GI50 (µM)

>>> print(df.to_string())
                                    compound  readout_name  lt_gt_eq  result_number
 0  COc1cc2c(cc1OC)C1[C@@H](c3ccccc3)OCN1CC2 (stereo not given in full)          GI50         >           90.6
 1  CC(=O)c1ccc(Br)cc1NC1=CC(=O)c2ncccc2C1=O          GI50         =           2.69
 2        COc1ccc2c(c1)C(=O)c1ccc(OC)cc1C2=S          GI50         >            100
 3  C#CCNC(Cc1c[nH]cn1)C(=O)O (stereo not given)          GI50         >            100
 4            N#Cc1ccccc1C#C/C=C\C#Cc1ccccn1          GI50         =           18.8
 5  Cc1ccc(C(=O)C2CC3(CCC2(O)c2ccc(C)cc2)CC(=O)Nc2ccccc2C3=O)cc1 (stereo not given)          GI50         >            100
 6  O=C1NC(=S)NC(=O)C1C(c1ccc(Cl)cc1)C1C(=O)NC(=S)NC1=O.c1ccncc1          GI50         >            100
 7  O=C(O)CC(O)(c1ccccc1C(=O)O)c1cccc2ccccc12 (stereo not given)          GI50         >            100
 8  CNc1ncnc2c1ncn2C1C=CC(COS(N)(=O)=O)C1 (stereo not given)          GI50         >            100
 9  COc1c(C)c(OC)c2c(c1O)[C@@H]1[C@@H]3Cc4c(OC)c(C)c(OC)c(O)c4[C@H](CNC(=O)c4ccc5ccccc5n4)N3[C@@H](C#N)[C@H](C2)N1C          GI50         =         0.0101
10        O=c1cc(-c2ccccc2)[nH]c2c(Cl)cccc12          GI50         =           5.09
11  COC(=O)[C@H](Cc1c[nH]c2ccccc12)NC(=O)OCC1OC(n2cc(C)c(=O)[nH]c2=O)CC1N=[N+]=[N-] (stereo not given in full)          GI50         >            100
12  COc1ccc2nc3cc(Cl)ccc3c(Sc3ccccc3[N+](=O)[O-])c2c1          GI50         >            100
13  CC(=O)/C(=C/n1c(=S)[nH]c2ccccc21)C(=O)Nc1ccccc1C          GI50         >            100
14  C=CCOc1ccc(C2C(C(=O)OCC)C(=O)CC(C)(O)C2C(=O)OCC)cc1OC (stereo not given)          GI50         >            100
15  COC(=O)CC(c1ccccc1)C(C#N)(OP1(=O)OC(c2ccccc2)C(C)N1C)c1ccccc1 (stereo not given)          GI50         =           41.2
16              O=C1c2ccccc2C(=O)c2[nH]cnc21          GI50         =           48.5
17  CCOC(=O)C(C(N)=O)C1=Nc2cc([N+](=O)[O-])ccc2N/C1=C\C(=O)c1ccccc1 (stereo not given)          GI50         =           12.6
18  O=C(COc1ccc(OCC(=O)N2C(=O)CN(c3ccccc3)C2=S)cc1)N1C(=O)CN(c2ccccc2)C1=S          GI50         >           54.1
19  CCC(C)[C@H](NC(=O)[C@H](Cc1ccccc1)NC(=O)N(CC)c1ccccc1)C(=O)N[C@@H](CC(C)C)C(=O)OC (stereo not given in full)          GI50         =           38.6
20                          NC(=O)NN=C(CS)CS          GI50         =           22.8
21      OC(c1ccccc1)(c1ccccc1)c1nccc2ccccc12          GI50         =           37.3
22  O=C1C(Cl)=C(N2CCN(c3ccccn3)CC2)C(=O)c2c(O)ccc(O)c21          GI50         =           1.12
23  CN(C)c1ccc(C=C2N=C(c3ccccc3)N(c3cc(C(=O)c4ccccc4)ccc3N3C(=O)/C(=C/c4ccc(N(C)C)cc4)N=C3c3ccccc3)C2=O)cc1          GI50         =           4.49
24      Oc1ccc(C(c2ccc(O)cc2)c2ccc(O)cc2)cc1          GI50         =           23.9
25             OB(O)c1ccccc1C#Cc1ccccc1B(O)O          GI50         =           20.9
26  Cc1cn(C2CC(O)C(COP(=O)(O)OC3CC(n4c[n+]([BH2-]C#N)c5c(=O)[nH]c(N)nc54)OC3CO)O2)c(=O)[nH]c1=O (stereo not given)          GI50         >            100
27  Br[C@@H]1[C@H]2c3nc4ccccc4nc3[C@@H]1C[C@H]2Br          GI50         =           61.5
28  O=C(/C=C/c1ccc(O)c(O)c1)O[C@H]1CCCC[C@@H]1OC(=O)/C=C/c1ccc(O)c(O)c1          GI50         =           6.73
29  Cc1cc(NS(=O)(=O)c2ccc(Nc3c4ccccc4nc4c(C(=O)N5CCN(CCO)CC5)cccc34)cc2)no1          GI50         >            100
30  CCC(C)C(NC(=O)c1c2ccccc2nc2ccccc12)C(=O)O (stereo not given)          GI50         =             41
31  COC(=O)C1=CC2CCCC1(O)C(C(C)=O)C2 (stereo not given)          GI50         >           66.5
32  COc1ccccc1C(C1=C(O)COC1=O)c1cc2c(cc1OC(C)=O)OCO2 (stereo not given)          GI50         >            100
33  CCOC(=O)C(NC(=O)CC)(Nc1cc(C)on1)C(F)(F)F (stereo not given)          GI50         >            100
34  N#Cc1c(N)c2c(c(-c3ccccc3)c1-c1ccccc1)C(=O)N(N)C2=O          GI50         >            100
35        S=C(Nc1ccc2c(c1)oc1ccccc12)c1cccs1          GI50         >            100
36  C1=C2C3=[N+](CCCC3)CC2Cc2sccc21 (stereo not given)          GI50         >            100
37  N=C(N)Nc1ccc(CC(N)NCC(=O)O)cc1 (stereo not given)          GI50         >             25
38      CCOC(=O)CNc1nc(=O)c2c(=O)oc(Cl)cc2o1          GI50         =             10
39  CCCn1c(SCCSc2c3ccccc3c(-c3nc(F)nc(F)n3)n2CCC)c2ccccc2c1-c1nc(F)nc(F)n1          GI50         >            100

====

Test system: SF-539
Assay: NCI tumour cell line growth inhibition, 48 h
Activity calls are given as the source filed them. Rule as the data show it: active = GI50 up to about 1.1 µM and inactive = higher.
Outcome codes: TRUE (active), FALSE (inactive)

>>> print(df.to_string())
                                   molecule  group_label
0  COc1cc(Nc2nc3cc(C(F)(F)F)ccc3nc2-c2ccccc2)cc(OC)c1OC        FALSE
1      Cc1cc(-c2ccccc2)nc(Nc2nc3ccccc3o2)n1        FALSE
2    O=S(=O)(SCc1ccccc1)C(c1ccccc1)c1ccccc1        FALSE
3  N=C(N)NS(=O)(=O)c1ccc(NC(=O)c2cccn3c(=O)c4ccccc4nc23)cc1        FALSE
4  CSC1CC2C(CC1(C)SC)C2(C)C (stereo not given)        FALSE
5  S=C1OC2CCCC[C@H]2O1 (stereo not given in full)        FALSE
6   Cc1ccc(NC(=O)C(=O)Cc2nc3ccccc3o2)c(C)c1        FALSE
7  O=c1[nH]/c(=C/c2ccc(OCc3ccccc3)cn2)c(=O)[nH]/c1=C/c1ccc(O)cc1         TRUE
8                Cc1nnc2sc(Cc3cnc(N)s3)nn12        FALSE
9  CN(C)c1ccc(C=C2N=C(c3ccccc3)N(c3cc(C(=O)c4ccccc4)ccc3N3C(=O)/C(=C/c4ccc(N(C)C)cc4)N=C3c3ccccc3)C2=O)cc1        FALSE
